Provenance of the data: PubChem BioAssay AID1159580

test: chemical genetic growth profiling, strain panel (AID 1159580);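 further: tested at 20 µM; growth read once vehicle control cultures reached saturation at 30 °C; 1 = growth at the plate median or of vehicle wells; lower values mean less growth of the strain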; details: S. cerevisiae deletion strains, growth OD, locus YPL241C, strain CIN2, hits give low values
In all, about 5,500 compounds went through this assay and about 2,000 (36%) were called active. Not shown: some 18% with an inconclusive outcome. The list shows a part of the results.
quantity: normalized growth

[
  {
    "compound": "CCN(CC)CCOC(=O)C(c1ccccc1)c1ccccc1",
    "val": 0.991
  },
  {
    "compound": "CC1=C2[C@H]3OC(=O)[C@@H](C)[C@@H]3CC[C@@]2(C)C=CC1=O",
    "val": 1.01
  },
  {
    "compound": "COc1cc(OC)c2c3c1C(=O)c1c(OC)cc(C)c4c(OC)cc(c-3c14)C(C)(C)C2=O",
    "val": 1.01
  },
  {
    "compound": "CCC(=O)Nc1ccc(Cl)c(Cl)c1",
    "val": 0.993
  },
  {
    "compound": "Cc1cc(O)c(C=O)c2c1C(=O)Oc1c(C)c(O)c3c(c1O2)C(O)OC3=O (stereo unspecified)",
    "val": 0.994
  },
  {
    "compound": "CC(=O)Nc1ccc(S(=O)(=O)Nc2ncccn2)cc1",
    "val": 0.963
  },
  {
    "compound": "CCCn1c(=O)c2[nH]c(-c3ccc(OCC(=O)Nc4ccc(C#N)cc4)cc3)nc2n(CCC)c1=O",
    "val": 0.973
  },
  {
    "compound": "N/C(=N/O)c1csc(-c2ccc(F)cc2F)n1",
    "val": 1
  },
  {
    "compound": "Cc1cc(C)cc(OCC2CNC(=O)O2)c1 (stereo unspecified)",
    "val": 1.01
  },
  {
    "compound": "NC(Cc1ccc(F)cc1)C(=O)O (stereo unspecified)",
    "val": 1
  },
  {
    "compound": "Cc1c(S(=O)(=O)c2ccc(Cl)cc2)csc1C(=O)Nc1ccc(N2CCOCC2)c(Cl)c1",
    "val": 0.984
  },
  {
    "compound": "CC(=O)N=c1sc(S(N)(=O)=O)nn1C",
    "val": 1.01
  },
  {
    "compound": "O=C(O)Cc1ccccc1I",
    "val": 1.02
  },
  {
    "compound": "CCN(CC)C(C)CN1c2ccccc2Sc2ccccc21 (stereo unspecified)",
    "val": 0.996
  },
  {
    "compound": "COc1c2ccoc2nc2c(OC)c(OCC(O)C(C)(C)O)ccc12 (stereo unspecified)",
    "val": 0.992
  },
  {
    "compound": "C[C@H]1C2Cc3ccc(O)cc3[C@]1(C)CCN2CC1CC1",
    "val": 1.01
  },
  {
    "compound": "C#CC(N)CCC(=O)O (stereo unspecified)",
    "val": 1.01
  },
  {
    "compound": "CCCC(C(=O)OCCN(CC)CC)(c1ccccc1)c1ccccc1",
    "val": 1
  },
  {
    "compound": "CO[C@]12C[C@@H](COC(=O)c3cncc(Br)c3)CN(C)[C@@H]1Cc1cn(C)c3cccc2c13",
    "val": 0.999
  },
  {
    "compound": "O=c1cc(-c2ccc(O)c(O)c2)oc2cc(O)cc(O)c12",
    "val": 0.997
  },
  {
    "compound": "CNC(=O)Oc1ccc2c(c1)[C@]1(C)CCN(C)[C@@H]1N2C",
    "val": 1.01
  },
  {
    "compound": "CS(=N)(=O)CC[C@H](N)C(=O)O (stereo partly specified)",
    "val": 1
  },
  {
    "compound": "CCc1ccccc1NC(C)=O",
    "val": 1.01
  },
  {
    "compound": "N[C@H](Cc1cc(I)c(Oc2ccc(O)c(I)c2)c(I)c1)C(=O)O",
    "val": 1.01
  },
  {
    "compound": "COc1ccc(C=Nc2ccc(O)cc2)cc1",
    "val": 0.987
  },
  {
    "compound": "Cc1ccc2c(c1)N(CCO)C(C)(C)CC2C (stereo unspecified)",
    "val": 0.998
  },
  {
    "compound": "O=C(Nc1ccccc1)NC1CCCC1",
    "val": 0.99
  },
  {
    "compound": "CC(=O)Nc1nnc(S(N)(=O)=O)s1",
    "val": 0.645
  },
  {
    "compound": "O=c1c2cc(NS(=O)(=O)c3ccc(Cl)cc3)ccc2oc2ncccc12",
    "val": 1.01
  },
  {
    "compound": "N[C@@H](Cc1cc(I)c(Oc2cc(I)c(O)c(I)c2)c(I)c1)C(=O)O",
    "val": 1.05
  },
  {
    "compound": "COc1ccc(C(=O)C2CCNCC2)cc1",
    "val": 1.07
  },
  {
    "compound": "CC(=O)O[C@H]1CC[C@]2(C)C3C(=O)[C@@H](OC(C)=O)[C@@]4(C)C(C[C@@H]5O[C@]6(CCC(C)CO6)[C@@H](C)[C@@H]54)C3CC[C@H]2C1 (stereo partly specified)",
    "val": 0.996
  },
  {
    "compound": "Cc1cc(NS(=O)(=O)c2ccc(NS(=O)(=O)c3cc(C)c(Cl)cc3C)cc2)no1",
    "val": 0.985
  },
  {
    "compound": "Cc1ccc(S(=O)(=O)Nc2ccc(C)c([N+](=O)[O-])c2)cc1",
    "val": 0.952
  },
  {
    "compound": "CCOC(=O)[C@H](CCc1ccccc1)N[C@@H](C)C(=O)N1Cc2ccccc2C[C@H]1C(=O)O",
    "val": 1.01
  },
  {
    "compound": "COc1cc([C@@H]2c3cc4c(cc3[C@H](OC(C)=O)[C@H]3COC(=O)[C@@H]23)OCO4)cc(OC)c1OC",
    "val": 1.02
  },
  {
    "compound": "N[C@@H](Cc1c[nH]c2ccc(O)cc12)C(=O)O",
    "val": 1
  },
  {
    "compound": "CC(CN(C)C)CN1c2ccccc2Sc2ccccc21 (stereo unspecified)",
    "val": 0.999
  },
  {
    "compound": "C/C(=N/Nc1c(Cl)cc(Cl)cc1Cl)c1cc(F)ccc1OC(=O)c1ccccc1F",
    "val": 0.972
  },
  {
    "compound": "NC(CCCP(=O)(O)O)C(=O)O (stereo unspecified)",
    "val": 0.993
  },
  {
    "compound": "COC(=O)c1c(C)cc(OC(=O)c2c(C)c(Cl)c(O)c(C=O)c2O)c(C)c1O",
    "val": 0.989
  },
  {
    "compound": "Cc1c(S(=O)(=O)c2ccc(Cl)cc2)csc1S(=O)(=O)N/N=C\\c1c(Cl)cccc1Cl",
    "val": 0.993
  },
  {
    "compound": "CN(C)N=Nc1nc[nH]c1C(N)=O",
    "val": 1.01
  },
  {
    "compound": "Nc1ccn([C@@H]2O[C@H](CO)[C@@H](O)C2O)c(=O)n1 (stereo partly specified)",
    "val": 0.996
  },
  {
    "compound": "CC(=O)Nc1ccc(S(=O)(=O)NC2Cc3ccccc3C2)cc1",
    "val": 1.02
  },
  {
    "compound": "CCn1c(=O)c2[nH]c(-c3ccccc3)nc2n(CC)c1=O",
    "val": 1.01
  }
]
